Data credit: the OligoGym collection

Target: NTRK2
Assay: pooled miR-30 sensor sort-seq; sequence = guide strand
Conditions: shRNA
reported_metric: sensor-assay potency score (higher = more potent)

[[record]]
input_sequence = "TTGTTTGACAGCTGGTACCAGG"
reported_result = -0.771

[[record]]
input_sequence = "TCGTTGATGATTTCTAACCTTT"
reported_result = -0.793

[[record]]
input_sequence = "TATGAAACAAAACAAAACCTTT"
reported_result = -1.09

[[record]]
input_sequence = "TTCAACATCATCTTCGTTGATG"
reported_result = -0.198

[[record]]
input_sequence = "TTTAGTACAGATGTATTTGGAC"
reported_result = -0.241

[[record]]
input_sequence = "TTCACTGCCACCAAGATCTTGT"
reported_result = 0.258

[[record]]
input_sequence = "TTGATGTGCTGAACAAATGTGT"
reported_result = 0.264

[[record]]
input_sequence = "TATAGAACCACTGAAGCGCTGG"
reported_result = 0.358

[[record]]
input_sequence = "TTTCCTAGACAAACTCGTCAGT"
reported_result = -0.24


====

Biological target: HMP19
Test: pooled miR-30 sensor sort-seq; sequence = guide strand
Conditions: shRNA
Decision: sensor-assay potency score (higher = more potent) compared against -0.2; not below it gives label 1, below it gives label 0.

[[record]]
input_sequence = "TTGGTTCCCTTCTCGCTGGGGT"
assayed_system = "HMP19"
label_class = "label 1"

[[record]]
input_sequence = "TTATAGACGAATCCCTCTGGGC"
assayed_system = "HMP19"
label_class = "label 0"

[[record]]
input_sequence = "TTGTTCTTCTGTTCCGGCTGAT"
assayed_system = "HMP19"
label_class = "label 1"

[[record]]
input_sequence = "TAAACCACCAGGAACACGATGC"
assayed_system = "HMP19"
label_class = "label 0"

[[record]]
input_sequence = "TTCTTGTCTTCACAATCACCTT"
assayed_system = "HMP19"
label_class = "label 0"

[[record]]
input_sequence = "TTCGGCACCCGGAACTTCCCTT"
assayed_system = "HMP19"
label_class = "label 0"

[[record]]
input_sequence = "TAAGTGATTAACCTCCAAGGGA"
assayed_system = "HMP19"
label_class = "label 0"


====

Target: SLC45A3
Test: pooled miR-30 sensor sort-seq; sequence = guide strand
Details: shRNA
Decision: sensor-assay potency score (higher = more potent) compared against -1; not below it gives met, below it gives not met.

[[record]]
input_sequence = "TAGGTGTGTCTCAACTAGGAGG"
label_class = "met"

[[record]]
input_sequence = "TTTGGGCAGGAACACCTGCTTC"
label_class = "not met"

[[record]]
input_sequence = "AAATCCGTGTAAAACAGCGTGA"
label_class = "met"

[[record]]
input_sequence = "TAAAACAGCGTGAAGGTCATGA"
label_class = "met"

[[record]]
input_sequence = "AAAGGTTAGCAGGTTGACCAGC"
label_class = "met"


====

Target: ANXA5
Experiment: pooled miR-30 sensor sort-seq; sequence = guide strand
Settings: shRNA
reported_metric: sensor-assay potency score (higher = more potent)

[[record]]
input_sequence = "TTCTTCCTAAACTCCTTCCTGA"
reported_result = -0.49

[[record]]
input_sequence = "TTTCATTTGTTCCAGCTCCCTT"
reported_result = -0.639

[[record]]
input_sequence = "TTCAACTTGAGCTTCATCAATT"
reported_result = -0.586

[[record]]
input_sequence = "TAGATTTCACAACAGCAAGGAG"
reported_result = -0.538

[[record]]
input_sequence = "TTCATAAGCATCATAAAGCCGA"
reported_result = -0.311

[[record]]
input_sequence = "TAGCATAATAGAGGGTCTCTGC"
reported_result = -0.439

[[record]]
input_sequence = "TTGAAATCCTGATATAGTCATG"
reported_result = -1.04

[[record]]
input_sequence = "TTAATTTTTCAAATTTTCCAGT"
reported_result = 0.274

